# logD at 1 h values compiled below
assay: physchem; details: n-octanol/potassium phosphate buffer, pH 7.4

>  <MOLECULE>
CC(=O)CC[C@H]1C(=O)N[C@@H](C(C)C)C(=O)N[C@@H](Cc2cccc(O)c2)C(=O)N2CCCC(N2)C(=O)O[C@H](/C(C)=C/C=C/C(=O)N2CCCCO2)C/C=C/C=C/[C@H](O)[C@H](C)[C@H]1O (stereo partly drawn)

>  <logD at 1 h>
2.6

$$$$
>  <MOLECULE>
CC[C@H]1C[C@H](C)[C@@]2(NC1=O)O[C@@H](C[C@H](O)[C@@H](C)CC/C=C/C=C(\C)[C@@H]1C/C=C/C=C/[C@H](O)[C@H](C)[C@@H](O)[C@@H](CCC(C)=O)C(=O)N[C@@H](C(C)C)C(=O)N[C@@H](Cc3cccc(O)c3)C(=O)N3CCCC(N3)C(=O)O1)[C@H](C)[C@H](O)[C@@H]2C (stereo partly drawn)

>  <logD at 1 h>
> 3.7

$$$$
>  <MOLECULE>
CON(C)C(=O)/C=C/C=C(\C)[C@@H]1C/C=C/C=C/[C@H](O)[C@H](C)[C@@H](O)[C@@H](CCC(C)=O)C(=O)N[C@@H](C(C)C)C(=O)N[C@@H](Cc2cccc(O)c2)C(=O)N2CCCC(N2)C(=O)O1 (stereo partly drawn)

>  <logD at 1 h>
2.3

$$$$

# credit: ChEMBL document CHEMBL3217729
